The measured values listed here are drawn from the Immune Epitope Database (IEDB).

Reported pIC50 values for a set of sequences
- SYSTEM UNDER TEST: HLA-A*68:02
- PROTOCOL SUMMARY: IEDB peptide-MHC binding, cellular MHC/competitive/fluorescence; bounds were set here for any values at or beyond the usual limits of such assays
- STATED CONDITIONS: source organism: Vaccinia virus WR
pIC50: −log10 of the molar value.
ASSAY METRIC: pIC50

>>> print(df.to_string())
    input_sequence  assay_metric  result_qualifier  observed_value
 0       VQLSNNKYV         pIC50                 ≤            4.15
 1      GLKIEEIEKV         pIC50                 ≤            4.15
 2      SAEDNYLAKL         pIC50                 ≤            4.15
 3      VIRHVDGKIL         pIC50                 ≤            4.15
 4       KLTKDRKML         pIC50                 ≤            4.15
 5       SADNHPKMI         pIC50                 ≤            4.15
 6       LTDVEKRIL         pIC50                 ≤            4.15
 7      LMELPVKTDI         pIC50                 ≤            4.15
 8      FMEEEIKAEM         pIC50                 =            4.77
 9      CLEAKTHFST         pIC50                 ≤            4.15
10       NVDVGCLLT         pIC50                 ≤            4.15
11      NIKPVIVPDI         pIC50                 =            5.02
12      TIDNIVTSLA         pIC50                 ≤            4.15
13      LTNKKYRCMA         pIC50                 =            4.78
14       SLVYGIRCV         pIC50                 =            4.29
15      LTQVKELGIA         pIC50                 =            4.87
16      TLNEYKQLYT         pIC50                 ≤            4.15
17      PMIIGEPIIV         pIC50                 ≤            4.15
18      CTEETKRNIA         pIC50                 =            4.82
19       KILSDENYL         pIC50                 =            4.33
20       ALTDVEKRI         pIC50                 =            4.62
21      KTPLYYLSGT         pIC50                 =            4.46
22      YLGHSAGFTA         pIC50                 =            5.09
23       GLTTHCTKL         pIC50                 ≤            4.15
24       TIESAKTKI         pIC50                 =            4.28
25       IILFQNNDI         pIC50                 =            4.62
26      SITPNNLNKI         pIC50                 ≤            4.15
27       ITPNNLNKI         pIC50                 =            4.87
28      SLTQVKELGI         pIC50                 =            5.15
29      LAIKNYYRKT         pIC50                 =            4.40
30       LAYYNSCML         pIC50                 =            4.87
31       LVSKHWELT         pIC50                 ≤            4.15
32      DVGCLLTDTI         pIC50                 =            4.56
33      DIDLLFNEKL         pIC50                 =            4.80
34      PLIISTDQDT         pIC50                 ≤            4.15
35      SLGKSPLPSL         pIC50                 =            4.89
36      SINNQLMYDI         pIC50                 =            5.19
37      KINNNRIVAM         pIC50                 =            4.64
38       RVLYDEFVT         pIC50                 =            4.55
39       VATFRDMLL         pIC50                 =            5.23
40      QMYRKFSRCT         pIC50                 =            4.32
41       VAMLLTHGA         pIC50                 =            5.02
42       RQQLEDIFM         pIC50                 ≤            4.15
43      NIVTDLENRL         pIC50                 =            4.88
44      DVNEEYTEAA         pIC50                 =            4.80
45      NMWREILSNT         pIC50                 =            4.20
46       QLSNNKYVL         pIC50                 =            4.90
47       IIDLLLPST         pIC50                 ≤            4.15
48       ALLSCIRNA         pIC50                 ≤            4.15
49      KLFKRERDAI         pIC50                 ≤            4.15
50      WLTPFEKEFT         pIC50                 ≤            4.15
51       VIVENDNVI         pIC50                 =            5.10
52      YIENTNQGNI         pIC50                 =            4.38
53       GMSIVCIVA         pIC50                 =            5.01
54      PVETLFGSYI         pIC50                 =            5.15
55      DLAIKQYGDI         pIC50                 =            5.11
56      QIGGEAIFLI         pIC50                 ≤            4.15
57       NLRCHSAHV         pIC50                 =            5.09
58      KIIAVFDSKL         pIC50                 =            4.50
59       WIKNLETYT         pIC50                 ≤            4.15
60      SIENKHQRRL         pIC50                 ≤            4.15
61      HLRASTTENA         pIC50                 =            4.44
62      LLKETIQKDI         pIC50                 =            4.88
63      PTEMVDVSMM         pIC50                 ≤            4.15
